Numbers sourced from PubChem BioAssay AID1159580.

- assay.explanation: chemical genetic growth profiling, strain panel (AID 1159580);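 note: tested at 20 µM; growth read once vehicle control cultures reached saturation at 30 °C; 1 = growth at the plate median or of vehicle wells; lower values mean less growth of the strain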
- cond: S. cerevisiae deletion strains, growth OD, locus YOR136W, strain idh2, stronger effect = lower value
About 2,000 (36%) of roughly 5,500 compounds were called active. Roughly 18% stayed inconclusive and do not appear here. The list shows a part of the results.
observable: normalized growth
Please respond with just the number, no unit label.

Guide cases for normalized growth, answers given:
Cn1c(=O)[nH]c2nc[nH]c2c1=O
0.998
CC(C)c1cc2c(c(O)c1O)[C@@]1(C(=O)O)CCCC(C)(C)C1CC2 (some centres undefined)
1
C[C@]12CC[C@@H](O)C[C@H]1CCc1ccccc12
0.995
O=C(O)CCC(=O)OC[C@@H](NC(=O)C(Cl)Cl)[C@H](O)c1ccc([N+](=O)[O-])cc1
0.984
C[C@]12[C@H](O)CC3C(CC[C@@H]4C[C@@H](O)CC[C@]34C)[C@@]1(O)CC[C@@H]2C1=CC(=O)OC1 (some centres undefined)
0.952
O=C(N[C@@H](CO)[C@H](O)c1ccc([N+](=O)[O-])cc1)C(Cl)Cl
0.998

Q: Please supply the value of reported normalized growth for the item CN1CCC[C@H]1c1cccnc1
Result: 0.988

Q: Please supply the value of reported normalized growth for the item COc1cc([C@@H]2c3cc4c(cc3[C@H](O)[C@H]3COC(=O)[C@H]23)OCO4)cc(OC)c1OC
Result: 1

Q: Please supply the value of reported normalized growth for the item COC(=O)CC1C(C)(C)C(=O)C2CC3(O)C4=CC(=O)OC(c5ccoc5)C4(C)CCC3C1(C)C2=O (centres undefined)
Result: 0.978

====

- assay.explanation: chemical genetic growth profiling, strain panel (AID 1159580);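 note: tested at 20 µM; growth read once vehicle control cultures reached saturation at 30 °C; 1 = growth at the plate median or of vehicle wells; lower values mean less growth of the strain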
- cond: S. cerevisiae deletion strains, growth OD, locus YCL029C, strain bik1, stronger effect = lower value
The whole screen tested about 5,500 compounds, of which about 2,000 (36%) were called active. About 18% were inconclusive and are not listed. Some of the results follow.
Reported normalized growth values for the following molecules.

Guide cases for normalized growth, answers given:
CC(C)[C@@H]1CC[C@@H](C)CC1=O
1.01 (inactive)
COc1ccc(-c2c(OC)c3c(OC)c4c(cc3oc2=O)OC(C)(C)C=C4)cc1
0.974 (inactive)
CC(=O)OCC1=C(C(=O)O)N2C(=O)[C@@H](NC(=O)CSc3ccncc3)[C@H]2SC1
1 (inactive)
CN1CCCCC1c1ccc(-c2cccnc2)nc1 (stereo not drawn)
0.97 (inactive)
ClC1C(Cl)C(Cl)C(Cl)C(Cl)C1Cl (stereo not drawn)
0.906 (active)
O=C(/C=C/c1ccccc1)c1c(O)cc(O)cc1O
1 (inactive)

Q: Please supply the value of reported normalized growth for the item Cn1c(=O)[nH]c2ncn(C)c2c1=O
Result: 0.996 (inactive)

Q: Please supply the value of reported normalized growth for the item CNC(C)(C)Cc1ccccc1
Result: 1 (inactive)

Q: Please supply the value of reported normalized growth for the item O=C1C(=O)c2ccccc2C(O)=C1C1CCC(c2ccc(Cl)cc2)CC1 (stereo not drawn)
Result: 0.992 (inactive)

====

- assay.explanation: chemical genetic growth profiling, strain panel (AID 1159580);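 note: tested at 20 µM; growth read once vehicle control cultures reached saturation at 30 °C; 1 = growth at the plate median or of vehicle wells; lower values mean less growth of the strain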
- cond: S. cerevisiae deletion strains, growth OD, locus YGL253W, strain hxk2
Screen size: about 5,500 compounds; about 2,000 (36%) were called active. Another 18% or so got no clear call; they are omitted. Cut-off read from the data, not from the text of the source: active = normalized growth mostly below about 0.91 (no sharp cut-off); inconclusive = no clear call, values can overlap the other calls; inactive = mostly above about 0.92. This is one part of the list.
Respond using exactly one of the listed classes: Y = active, N = inactive

Q: Test call, this molecule: O=c1c(O)c(-c2ccccc2)oc2cccc(O)c12
Result: Y

Q: Test call, this molecule: COc1cc(OC)c2c(OC)c(-c3ccc4c(c3)OCO4)c(=O)oc2c1
Result: N

Q: Test call, this molecule: CC(NC(C)(C)C)C(=O)c1cccc(Cl)c1 (centres undefined)
Result: N

Q: Test call, this molecule: O=C1C=C(O)c2ccccc2C1=O
Result: N

Q: Test call, this molecule: O=c1c(O)cccc2cc(O)c(O)c(O)c12
Result: Y

Q: Test call, this molecule: CO/N=C(/C(=O)NC1C(=O)N2C(C(=O)OCOC(=O)C(C)(C)C)=C(/C=C\c3scnc3C)CSC12)c1csc(N)n1 (centres undefined)
Result: N

Q: Test call, this molecule: O=C1c2ccccc2C(=O)c2ccccc21
Result: N

Q: Test call, this molecule: Cc1cc2nc3c(=O)[nH]c(=O)nc-3n(CC(O)C(O)C(O)CO)c2cc1C (centres undefined)
Result: N

Q: Test call, this molecule: C=CC[C@@H]1/C=C(\C)C[C@H](C)C[C@H](OC)[C@H]2O[C@@](O)(C(=O)C(=O)N3CCCC[C@H]3C(=O)O[C@H](/C(C)=C/[C@@H]3CC[C@@H](O)[C@H](OC)C3)[C@H](C)[C@@H](O)CC1=O)[C@H](C)C[C@@H]2OC
Result: N
